# System: Aerobactin synthetase IucA (Klebsiella pneumoniae)
# run_description: inhibition of K. pneumoniae IucA enzyme – biochemical, Tocris library, absorbance (AID 1345561);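 note: 100% = enzyme without compound and 0% = no enzyme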
# condition_description: purified IucA enzyme assay, absorbance (OD) read-out; active compounds read low;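 tested at 8 µM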
Recorded measurements of remaining activity, one per entry
measured_property: remaining activity (%)

C1CC[C@H]2[N]=[Pt]=[N][C@@H]2C1.O=C(O)C(=O)O ... 86.1
CN(N=O)C(=O)N[C@H]1C(O)O[C@H](CO)[C@@H](O)[C@@H]1O (stereo partly specified) ... 111
CC(=O)O[C@@H]1C[C@H]2C(C)(C)C(=O)C=C[C@]2(C)[C@H]2CC[C@@]3(C)[C@H](c4ccoc4)OC(=O)[C@H]4O[C@]43[C@@]21C ... 103
COc1cccc(CCc2ccccc2OCC[C@@H]2C[C@@H](O)CN2C)c1 ... 109
CC[N+](C)(CC)CC(=O)Nc1c(C)cccc1C ... 109
C1CCC2(CC1)CCNCC2 ... 105
O=C1c2ccccc2CCC1CNCCc1ccc(O)cc1 (stereo unspecified) ... 104
O=C(O)CCC/C=C\C[C@@H]1CO[C@H](C(F)(F)F)O[C@@H]1c1ccccc1O ... 111
N#Cc1ccc(NCCNCC(=O)N2CCC[C@H]2C#N)nc1 ... 110
Ic1cc(-c2ccccc2)ncn1 ... 120
O=C(O)c1ccc(/C=C2/SC(=S)N(c3cccc(C(F)(F)F)c3)C2=O)cc1 ... 83.1
COC(=O)C(Cc1ccc(OCCn2c(=O)sc3cc(C(=O)c4ccccc4)ccc32)cc1)C(=O)OC ... 104
O=C1c2ccccc2C(Cc2ccncc2)(Cc2ccncc2)c2ccccc21 ... 107
O=C(NC(NC(=S)Nc1ccc(F)c([N+](=O)[O-])c1)C(Cl)(Cl)Cl)C(c1ccccc1)c1ccccc1 (stereo unspecified) ... 80.1
CCOC(=O)C1=C(C)NC(c2ccccc2)=C(C(=O)OCc2ccc([N+](=O)[O-])cc2)C1C#Cc1ccccc1 (stereo unspecified) ... 124
Cc1ccc(OC[C@@H](O)[C@H](C)NC(C)C)c2c1CCC2 ... 82.6
Cc1ccc(/C=C2\CNC/C(=C\c3ccc(C)cc3)C2=O)cc1 ... 95.5
Cc1cc(C)c(S(=O)(=O)Nc2ccccc2C(F)(F)F)c(C)c1 ... 96.1
CN(CCc1ccc(Cl)c(Cl)c1)CC(O)COc1ccc(NS(C)(=O)=O)cc1 (stereo unspecified) ... 107
C[C@@H]1O[C@@]2(CS1)CN1CCC2CC1 (racemic) ... 111
CC(C)[C@H](NS(=O)(=O)c1ccc(-c2ccc(Br)cc2)cc1)C(=O)O ... 100
